- ASSAY OVERVIEW: Triangle test of taste modification of theobromine solution
- Assay type: in vivo, human
- CONDITION INFO: 2.2 μmol/L added; theobromine reference bitterness 5.0
PROPERTY: taste intensity
// return just the number, without any unit appended

Example cases with answers are listed next.
molecule="Oc1cc(O)c2c(c1)O[C@H](c1ccc(O)c(O)c1)[C@@H](O)C2 [(+)-catechin]" quantitative_result=5.0
molecule="Oc1cc(O)c2c(c1)OC(c1ccc(O)c(O)c1)C(O)C2 (single isomer, unassigned; (-)) [(−)-epicatechin]" quantitative_result=5.0

# evaluate next
Would you mind telling me what taste intensity value was observed for O=c1cc(-c2ccc(O)cc2)oc2cc(O)c([C@@H]3O[C@H](CO)[C@@H](O)[C@H](O)[C@H]3O)c(O)c12 [isovitexin, apigenin-6-C-β-D-glucopyranoside] ?
5.0

----------
- ASSAY OVERVIEW: Triangle test of taste modification of theobromine solution
- Assay type: in vivo, human
- CONDITION INFO: 222/L μmol/L added; theobromine reference bitterness 5.0
PROPERTY: taste intensity
// return just the number, without any unit appended

compound="O=c1cc(-c2ccc(O)cc2)oc2c([C@@H]3O[C@H](CO)[C@@H](O)[C@H](O)[C@H]3O)c(O)cc(O)c12 [vitexin, apigenin-8-C-β-D-glucopyranoside]" quantitative_result=4.5

# evaluate next
Would you mind telling me what taste intensity value was observed for O=c1cc(-c2ccc(O)cc2)oc2cc(O)c([C@@H]3O[C@H](CO)[C@@H](O)[C@H](O)[C@H]3O)c(O)c12 [isovitexin, apigenin-6-C-β-D-glucopyranoside] ?
4.5

----------
- ASSAY OVERVIEW: Triangle test of taste modification of theobromine solution
- Format: in vivo, human
- CONDITION INFO: 2.2 μmol/L added; compared with theobromine reference
- Text: […]
PROPERTY: taste

compound="O=c1cc(-c2ccc(O)cc2)oc2cc(O)c([C@@H]3O[C@H](CO)[C@@H](O)[C@H](O)[C@H]3O)c(O)c12 [isovitexin, apigenin-6-C-β-D-glucopyranoside]" result=bitterness
compound="Oc1cc(O)c2c(c1)OC(c1ccc(O)c(O)c1)C(O)C2 (single isomer, unassigned; (-)) [(−)-epicatechin]" result=bitterness
compound="Oc1cc(O)c2c(c1)O[C@H](c1ccc(O)c(O)c1)[C@@H](O)C2 [(+)-catechin]" result=bitterness

----------
- ASSAY OVERVIEW: Triangle test of taste modification of theobromine solution
- Assay type: in vivo, human
- CONDITION INFO: 222/L μmol/L added; theobromine reference bitterness 5.0
PROPERTY: taste intensity

compound="Oc1cc(O)c2c(c1)OC(c1ccc(O)c(O)c1)C(O)C2 (single isomer, unassigned; (-)) [(−)-epicatechin]" result="bitterness (4.0)"
compound="Oc1cc(O)c2c(c1)O[C@H](c1ccc(O)c(O)c1)[C@@H](O)C2 [(+)-catechin]" result="bitterness (4.0)"
